Tested on: OVCAR-8
Assay: NCI tumour cell line growth inhibition, 48 h
Calls of active or inactive are those of the source. Cut-off read from the data, not from the text of the source: active = GI50 up to about 1.1 µM and inactive = higher.
Select the matching outcome among true for active, false for inactive

Call for entry O=C1OC2C=CCC1C2 (stereo unspecified) :
false

Call for entry COC(=O)OC[C@H]1O[C@@H](n2cc(C)c(=O)[nH]c2=O)CC1OC(=O)OC (stereo partly specified) :
false

Call for entry `CSC1=N/C(=C\c2ccc(C)cc2)C(=O)N1` :
false

Call for entry `COC(=O)c1c(C)cc(OC)c(C/C=C(\C)CCCc2coc(C=C(C)C)c2)c1OC` :
false

Call for entry `O=C(CSc1nc2ccc(I)cc2c(=O)n1Cc1ccccc1)NN1C(=O)CCC1=O` :
false

Call for entry `CCc1ccccc1N1CCN(C(=O)c2cc(OC)c(OC)c(OC)c2)CC1` :
true

Call for entry `O=C1c2ccccc2C(=O)c2cc3c(cc21)C[S+]([O-])C3` :
false

Call for entry `CCCS(=O)(=O)O` :
false

Call for entry `Cc1[nH]c2ncn(/N=C/c3ccccc3O)c(=N)c2c1Cc1ccccc1` :
false

Call for entry C=C(C)C1C/C=C(/C)CCCC2(CCC3=C(CC(C(=C)C)C/C=C(/C)CCC3)O2)C(=O)C1 (stereo unspecified) :
false

Call for entry `COc1cc(/C=C\c2ccc(OC(C)=O)cc2)cc(OC)c1OC` :
false

* * *

Test system: OVCAR-3
Test: NCI tumour cell line growth inhibition, 48 h
The source made the active and inactive calls. Rule as the data show it: active = GI50 up to about 1.1 µM and inactive = higher.
Select the matching outcome among class 1 = active, class 0 = inactive

Call for entry `O=C1CCC(c2ccccc2)=NN1c1nsc2ccccc12` :
class 0

Call for entry `Cc1c(C(=O)NCCO)[n+]([O-])c2cc(Cl)ccc2[n+]1[O-]` :
class 0

Call for entry `Cc1occc1/C(S)=N\c1ccc(Cl)c(C(=O)OCC2CC2)c1` :
class 0

Call for entry `CC1=NN(c2nc(N)nc(-c3cc4ccccc4oc3=N)n2)C(C)(C)C1` :
class 0

Call for entry `COc1cc([C@@H]2c3cc4c(cc3[C@@H](Nc3ccc(Cl)cc3C(=O)c3ccccc3)[C@H]3COC(=O)[C@H]23)OCO4)cc(OC)c1OC` :
class 1

* * *

Test system: K562
Experiment: NCI tumour cell line growth inhibition, 48 h
The source made the active and inactive calls. No stated cut-off is given here; in the data, active = GI50 up to about 1.1 µM and inactive = higher.
For each entry below, report its GI50 value.

Recorded GI50 for `COc1cc(CCC(=O)NS(=O)(=O)c2ccccc2)cc(OC)c1OC` with K562, please?
> 100 µM (inactive)

Recorded GI50 for `COC(=O)c1c(O)ccc2c1c1c(n2Cc2ccccc2OC)C(=O)c2ccccc2C1` with K562, please?
70.5 µM (inactive)

Recorded GI50 for `COCc1nc(N)nc(N2N=C(C)CC2(C)C)n1` with K562, please?
> 100 µM (inactive)

Recorded GI50 for CC1C(c2ccc3c(c2)OCO3)c2cc3c(cc2OC1N1CCCC1)OCO3 (stereo not given) with K562, please?
24.4 µM (inactive)

Recorded GI50 for `Nc1nc(N)c(N=O)c(Nc2ccc(Br)cc2)n1` with K562, please?
> 100 µM (inactive)

Recorded GI50 for CC(=O)[C@H]1CCC2[C@@H]3CC=C4C(O)C(OS(=O)(=O)O)CC[C@]4(C)C3CC[C@@]21C (stereo not given in full) with K562, please?
> 100 µM (inactive)

Recorded GI50 for COC(=O)C(CCCC1(c2ccccc2)OCCO1)C(C)=O (stereo not given) with K562, please?
91.8 µM (inactive)

Recorded GI50 for `CS/C(=N\C(=S)Nc1ccccc1)Nc1ccccc1` with K562, please?
12.6 µM (inactive)

Recorded GI50 for O=C(CC1(O)C(=O)Nc2c(Cl)ccc(Cl)c21)c1ccc2ccccc2c1 (stereo not given) with K562, please?
2.35 µM (inactive)

Recorded GI50 for `COc1ccc(-c2c(N)n(-c3nc4ccccc4s3)c(=O)c3cc([N+](=O)[O-])ccc23)cc1` with K562, please?
23.2 µM (inactive)
